Data provenance: patent US6972319B1

Target: PACAP-R2 (Homo sapiens)
Construct: expressed in transfected cells; host or cells: CHO cells
Sequence (P32241 31-457, species assumed): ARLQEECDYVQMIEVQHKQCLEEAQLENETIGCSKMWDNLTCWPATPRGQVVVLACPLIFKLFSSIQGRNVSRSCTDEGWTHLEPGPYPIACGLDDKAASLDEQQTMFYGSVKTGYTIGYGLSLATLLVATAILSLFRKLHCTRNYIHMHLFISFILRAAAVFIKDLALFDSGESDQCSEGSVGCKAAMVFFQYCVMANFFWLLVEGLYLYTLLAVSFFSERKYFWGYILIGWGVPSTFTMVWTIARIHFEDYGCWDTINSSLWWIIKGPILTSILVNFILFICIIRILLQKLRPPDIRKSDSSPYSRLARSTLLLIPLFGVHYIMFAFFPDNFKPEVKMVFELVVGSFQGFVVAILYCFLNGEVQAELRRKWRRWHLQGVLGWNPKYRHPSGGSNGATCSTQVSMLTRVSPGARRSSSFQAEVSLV
Assay: Cyclic AMP SPA on CHO cells transfected with PACAP-R2
Assay type: cell-based
Conditions: cAMP SPA, concentration at which 50% of maximum PACAP27 activity is achieved, NA = no detectable activities, read-out: R2 EC50
Procedure: CHO cells expressing the PACAP R3 were plated in 96-well plates (Costar) at 8×10^4 cell/well and grown at 37 C. for 24 hours in α MEM+nucleosides+glutamine (Giobco BRL), 10% FBS, 100 μg/ml Pen/Strep, 0.3 mg/ml glutamine, 1 mM HEPES, 0.5 mg/ml Geneticin (Gibco BRL). The media was removed and the plates were washed with PBS. […] Cyclic AMP in the cell extracts was quantitated using the cAMP SPA direct screening assay system (Amersham Pharmacia Biotech Inc, Piscataway, N.J.,). […]
pEC50: −log10 of the molar value. No end group written: not given here.
quantity measured: pEC50

[[record]]
substance = "HSDAVFTDNYTRLRKQLAVKKYLNSIKKGGT [Peptide R3P25]"
reported_relation = "="
observed_result = 7.82

[[record]]
substance = "HSDAVFTDQYTRLRKQLAAHKYLNTIKNKRY [Peptide R3P75]"
reported_relation = "<"
observed_result = 6.82

[[record]]
substance = "HSDGIFTDSYSRKRKQMAVKKYLAAVL-NH2 [PAC13]"
reported_relation = "="
observed_result = 8.52

[[record]]
substance = "HSDAVFTDNYTRLRKQMAAKKYLNSILK [Peptide R3P50]"
reported_relation = "="
observed_result = 9.15

[[record]]
substance = "HSDAVFTDNYTRLRKQMAAKKYLNSIKKKRY [Peptide R3P52]"
reported_relation = "<"
observed_result = 7.00

[[record]]
substance = "HSDAVFTDNYTRLRKQVAVKKYLQSIKNKRY [Peptide R3P82]"
reported_relation = "="
observed_result = 8.00

